- Test system: HCT116S542
- assay-protocol: In vitro cytotoxicity MTS assay
- Type: cell-based
- run-conditions: Homo sapiens, 72 hours, mean of 2 to 5 determinations
Counter-ions that a name gives are not always drawn.
property: IC50

(Q) Entry under review: C#Cc1cccc(Nc2ncnc3cc(OCCOC)c(OCCOC)cc23)c1 [BMS-461453, erlotinib HCl] . Reported IC50?
(A) > 10 µM

====

- Tested on: HCT116
- assay-protocol: In vitro cytotoxicity MTS assay
- Type: cell-based
- run-conditions: Homo sapiens, HCT-116, 72 hours, mean of 2 to 5 determinations
Counter-ions that a name gives are not always drawn.
property: IC50

(Q) Entry under review: C#Cc1cccc(Nc2ncnc3cc(OCCOC)c(OCCOC)cc23)c1 [BMS-461453, erlotinib HCl] . Reported IC50?
(A) > 10 µM
